Tested on: HOP-62 NSCLC
Assay: NCI-60 one-dose screen, 48 h (100 = growth as untreated, 0 = no growth, -100 = all killed)
Details: 10 µM unless noted
About 83,000 compounds went through this panel and 20% of them were active in at least one assay; those are over-represented in the sample as a whole.
growth values for the compounds below.

[
  {
    "compound": "C[C@@H](Oc1cc(-c2cnn(C3CCNCC3)c2)cnc1N)c1c(Cl)ccc(F)c1Cl",
    "unit": "%",
    "growth": -34.8
  },
  {
    "compound": "Oc1ccc(C(c2ccc(O)cc2)C(Cl)(Cl)Cl)cc1",
    "unit": "%",
    "growth": 107
  },
  {
    "compound": "CCc1cnn2c(NCc3ccc[n+]([O-])c3)cc(N3CCCC[C@H]3CCO)nc12",
    "unit": "%",
    "growth": -33.2
  },
  {
    "compound": "Cc1cc(N(CCNc2ccnc3cc(Cl)ccc23)Cc2ccc3c(c2)OCO3)nc(N2CCCC2)n1",
    "unit": "%",
    "growth": -25.8
  },
  {
    "compound": "O=CC(OC(=O)c1ccccc1)C(OC(=O)c1ccccc1)C(COC(c1ccccc1)(c1ccccc1)c1ccccc1)OC(=O)c1ccccc1 (stereo not drawn)",
    "unit": "%",
    "growth": 99.8
  },
  {
    "compound": "CC(C)[C@@H](C)/C=C/[C@@H](C)[C@H]1CCC2=C3C=CC4=CC(=O)CC[C@]4(C)[C@H]3CC[C@@]21C",
    "unit": "%",
    "growth": 104
  },
  {
    "compound": "CN1CCN(c2ccc(C(=O)Nc3n[nH]c4ccc(Cc5cc(F)cc(F)c5)cc34)c(NC3CCOCC3)c2)CC1",
    "unit": "%",
    "growth": -34.8
  },
  {
    "compound": "O=C1C=CC2(NN=C(c3ccccc3)N2c2ccc(Cl)cc2)c2cccc(O)c21 (stereo not drawn)",
    "unit": "%",
    "growth": 26.5
  },
  {
    "compound": "CCOc1cccc(/C=N/NC(=O)c2ccccc2Nc2ccnc(C(F)(F)F)c2)c1O",
    "unit": "%",
    "growth": -7.4
  },
  {
    "compound": "C/C(=N\\NC(=O)Cn1c(-c2ccc(S(C)(=O)=O)cc2)nc2ccccc21)c1ccc(Cl)cc1",
    "unit": "%",
    "growth": 88.6
  },
  {
    "compound": "O=C(NC1CCNCC1)c1[nH]ncc1NC(=O)c1c(Cl)cccc1Cl",
    "unit": "%",
    "growth": -18.5
  },
  {
    "compound": "CC/C(=C(\\c1ccc(OCCN2CCCCCCC2)cc1)c1ccc(OC(=O)C2CCCCC2)cc1)c1ccc(Cl)cc1",
    "unit": "%",
    "growth": 102
  },
  {
    "compound": "Cc1cc(Nc2cc(N3CCN(C)CC3)nc(Sc3ccc(NC(=O)C4CC4)cc3)n2)n[nH]1",
    "unit": "%",
    "growth": 18.4
  },
  {
    "compound": "COc1ccc2c(CCCC(c3ccccc3)c3ccccc3)c3[n+](cc2c1OC)CCc1cc2c(cc1-3)OCO2",
    "unit": "%",
    "growth": -9.19
  },
  {
    "compound": "CCOC(=O)C1=C(C)NC(=O)NC1c1cc(=O)oc2ccc(C)cc12 (stereo not drawn)",
    "unit": "%",
    "growth": 105
  },
  {
    "compound": "O=C(Nc1cn[nH]c1-c1nc2ccc(CN3CCOCC3)cc2[nH]1)NC1CC1",
    "unit": "%",
    "growth": -9.72
  },
  {
    "compound": "Cc1cc(N2CCCC2)nc(N(CCCNc2ccnc3cc(Cl)ccc23)Cc2ccc3c(c2)OCO3)n1",
    "unit": "%",
    "growth": -17.4
  },
  {
    "compound": "Cn1cc(-c2ccc(F)c(C(F)(F)F)c2)nc1C1CCN(c2ncnc3[nH]ncc23)CC1",
    "unit": "%",
    "growth": 52.1
  },
  {
    "compound": "Cc1ncc(-c2ccnc(Nc3ccc(S(C)(=O)=O)cc3)n2)n1C(C)C",
    "unit": "%",
    "growth": -14
  },
  {
    "compound": "COc1ccc(-c2cnc(-c3ccc(Cl)cc3)[nH]2)cc1OC",
    "unit": "%",
    "growth": 94.3
  },
  {
    "compound": "CC[C@@H]1C(=O)N(C)c2cnc(Nc3ccc(C(=O)NC4CCC(N5CCN(CC6CC6)CC5)CC4)cc3OC)nc2N1C(C)C (stereo partly drawn)",
    "unit": "%",
    "growth": -29.7
  },
  {
    "compound": "CN1CCN(CC(=O)Nc2ccc(-c3nc4ccccc4s3)cc2)CC1",
    "unit": "%",
    "growth": 87.3
  },
  {
    "compound": "CCOC(=O)Sc1ncnc2nc[nH]c12",
    "unit": "%",
    "growth": 17.2
  },
  {
    "compound": "COc1cc2c(cc1OCCCCN1CCN(CC(=O)Nc3ccc(Cl)cc3C(=O)c3ccccc3Cl)CC1)N=CC1CCCN1C2=O (stereo not drawn)",
    "unit": "%",
    "growth": -88.8
  },
  {
    "compound": "CCN(CC)Cc1cc(Nc2cc(C(F)(F)F)c(C#N)c3nc4ccccc4n23)ccc1O",
    "unit": "%",
    "growth": 14
  },
  {
    "compound": "CC(C)=CCc1cc2c(cc1O)C1=C(C(=O)C3=C(C1=O)S(=O)(=O)CCN3)C(C=C(C)C)O2 (stereo not drawn)",
    "unit": "%",
    "growth": -52.7
  },
  {
    "compound": "CCOc1cc2ncc(C#N)c(Nc3ccc(OCc4ccccn4)c(Cl)c3)c2cc1NC(=O)/C=C/CN(C)C",
    "unit": "%",
    "growth": 38.6
  },
  {
    "compound": "CCCCCc1ccc(C)cc1OC(=O)CCl",
    "unit": "%",
    "growth": 109
  },
  {
    "compound": "O=C(NO)c1ccc(Cn2c(=O)n(CCc3ccccc3)c(=O)c3ccccc32)cc1",
    "unit": "%",
    "growth": 31.1
  },
  {
    "compound": "Cc1cc(C2(c3ccc(O)c(C)c3)OS(=O)(=O)c3ccccc32)ccc1O",
    "unit": "%",
    "growth": 107
  },
  {
    "compound": "CCN(CC)CCN1C(=O)c2cccc3c(-c4ccc5c(c4)ncn5C4CCCCC4)ccc(c23)C1=O",
    "unit": "%",
    "growth": 8.72
  },
  {
    "compound": "Cc1csc(-c2nnc(Nc3ccc(Oc4ncccc4-c4ccnc(N)n4)cc3)c3ccccc23)c1",
    "unit": "%",
    "growth": 14.6
  },
  {
    "compound": "CN[C@@H]1C[C@H]2O[C@@](C)([C@@H]1OC)n1c3ccccc3c3c4c(c5c6ccccc6n2c5c31)C(=O)N[C@H]4O",
    "unit": "%",
    "growth": -60.8
  },
  {
    "compound": "COc1ccc(/C(C)=C(\\c2ccc(Cl)cc2)c2ccc(OCCN3CCCCCC3)cc2)cc1",
    "unit": "%",
    "growth": 48.4
  },
  {
    "compound": "Cc1cccc(C)c1N1C(c2ccccc2)=NNC12C=CC(=O)c1c(O)cccc12 (stereo not drawn)",
    "unit": "%",
    "growth": 39.4
  },
  {
    "compound": "O=C(Nc1ccc(-c2ccnc(Nc3ccc(N4CCOCC4)cc3)n2)cc1)[C@@H]1CCCN1",
    "unit": "%",
    "growth": 33.6
  },
  {
    "compound": "CCCCn1c(C)nc2cc(Nc3nc(N4CCCCC4)nc4nc[nH]c34)ccc21",
    "unit": "%",
    "growth": 62.1
  },
  {
    "compound": "Fc1ccc(NCc2cn(-c3ccccc3)nc2-c2ccc(OCc3ccccc3)cc2)cc1Cl",
    "unit": "%",
    "growth": 76.6
  }
]

Provenance of the data: PubChem BioAssay (NCI)
